- Test system: PANC-1 (pancreatic cancer) cell line
- assay name: Cell growth inhibition experiment (SRB), PANC-1
- Type: cell-based
- conditions: Homo sapiens, PANC-1, 96 h, 96 hours incubation
measure name: IC50 (µM)

Previously resolved entries follow.
COc1cc(OC)cc(N2CCN(C(=O)Nc3nc4ccoc4nc3OC)CC2)c1 : 0.53
CCOc1nc2oc(Cl)cc2nc1NC(=O)N1CCN(c2cc(OC)cc(OC)c2)CC1 : 1.58
CCOc1nc2oc(C)cc2nc1NC(=O)N1CCN(c2cc(C)cc(C)c2)CC1 : 0.43
CCOc1nc2occc2nc1NC(=O)N1CCN(c2cc(F)cc(OC)c2)CC1 : 0.65

(A) CCOc1nc2oc(Cl)cc2nc1NC(=O)N1CCN(c2cc(C(F)(F)F)cc(C(F)(F)F)c2)CC1
(B) COc1cc(C)cc(N2CCN(C(=O)Nc3nc4cc(Cl)oc4nc3OC)CC2)c1
Query block: Between A and B , whose measured IC50 reads higher? // return label of chosen record
Result block: A
(A: 1.98 µM, B: 1.23 µM)

----------
- Tested on: SK-OV-3
- assay name: Cell growth inhibition experiment (SRB), SK-OV-3
- Format: cell-based, human
- conditions: Homo sapiens, SK-OV-3, 96 h, 96 hours incubation, read-out: IC50 (μM) for cancer cell line SK-OV-3
- Method: The 4-(aryl)-N-(3-alkoxyfuro[2,3-b]pyrazin-2-yl)-piperazine-1-carboxamide derivative compounds synthesized according to Examples 1 to 60 of the present invention were treated with various human tissue-derived cancer cell lines cultured according to Experimental Example 1, and thus the inhibitory effect of the growth of human cancer cells was confirmed. […]
measure name: IC50 (µM)

COc1cc(F)cc(N2CCN(C(=O)Nc3nc4ccoc4nc3OC)CC2)c1 : 0.85

(A) COc1cc(F)cc(N2CCN(C(=O)Nc3nc4cc(C)oc4nc3OC)CC2)c1
(B) COc1nc2oc(C)cc2nc1NC(=O)N1CCN(c2cc(C)cc(C)c2)CC1
(C) COc1cc(OC)cc(N2CCN(C(=O)Nc3nc4cc(C)oc4nc3OC)CC2)c1
Query block: Hey, quick one: sort these by IC50, low to high? Enter labels, ranked according to the request.
Result block: A, B, C
(A: 0.36 µM, B: 0.63 µM, C: 1.85 µM)

----------
- Test system: PANC-1 (pancreatic cancer) cell line
- assay name: Cell growth inhibition experiment (SRB), PANC-1
- Format: cell-based
- conditions: Homo sapiens, PANC-1, 96 h, 96 hours incubation
measure name: IC50 (µM)

Previously resolved entries follow.
CCOc1nc2oc(C)cc2nc1NC(=O)N1CCN(c2cc(C)cc(OC)c2)CC1 : 0.32
COc1nc2occc2nc1NC(=O)N1CCN(c2cccc(OC(F)(F)F)c2)CC1 : 0.68
COc1nc2oc(C)cc2nc1NC(=O)N1CCN(c2cc(C)cc(C)c2)CC1 : 0.08

(a) CCOc1nc2oc(Cl)cc2nc1NC(=O)N1CCN(c2cc(OC)cc(OCCN(C)C)c2)CC1
(b) CCOc1nc2oc(Cl)cc2nc1NC(=O)N1CCN(c2cc(F)cc(OC)c2)CC1
Query block: Between a and b , whose measured IC50 reads higher? // return label of chosen record
Result block: a
(a: 1.88 µM, b: 0.56 µM)
